- system: T1, human CAPRIN-1 expressed on the surface of human cancer cells (human, UniProt Q14444 2-709); also: test concentration or dose not given here
- T1 sequence: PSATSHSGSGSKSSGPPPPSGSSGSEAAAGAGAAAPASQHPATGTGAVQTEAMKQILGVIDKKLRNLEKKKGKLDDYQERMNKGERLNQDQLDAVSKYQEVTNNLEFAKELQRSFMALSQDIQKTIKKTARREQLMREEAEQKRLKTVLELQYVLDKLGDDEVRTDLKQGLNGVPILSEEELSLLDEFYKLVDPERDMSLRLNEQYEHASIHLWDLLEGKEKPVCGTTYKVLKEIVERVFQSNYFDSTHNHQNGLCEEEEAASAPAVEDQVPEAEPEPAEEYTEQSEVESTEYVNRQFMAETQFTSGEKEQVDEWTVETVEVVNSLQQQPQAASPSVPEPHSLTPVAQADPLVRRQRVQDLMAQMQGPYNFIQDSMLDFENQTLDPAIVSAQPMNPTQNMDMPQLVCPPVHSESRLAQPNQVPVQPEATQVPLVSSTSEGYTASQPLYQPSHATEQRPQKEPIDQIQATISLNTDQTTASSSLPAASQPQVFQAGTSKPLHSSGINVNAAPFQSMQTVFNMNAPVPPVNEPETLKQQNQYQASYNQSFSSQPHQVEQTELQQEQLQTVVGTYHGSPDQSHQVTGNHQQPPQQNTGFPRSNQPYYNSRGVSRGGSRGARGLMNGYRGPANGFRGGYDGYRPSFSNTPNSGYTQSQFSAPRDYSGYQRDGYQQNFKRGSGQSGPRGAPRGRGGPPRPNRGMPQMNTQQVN
- assay name: cell-based or functional assay
# key: entry, value: ADCC cytotoxic activity (51Cr release) against MCF7
observation type: ADCC cytotoxic activity (51Cr release) against MCF7

binder	result
human-chicken chimeric monoclonal antibody #4 (antibody, V domains shown) VH: AVTLDESGGGLQTPGGAVSLVCKGSGFTFSSYGMGWVRQAPGKGLEYVAAIRKDGSTNYGPAVKGRATISRDNGQSTVRLQLSNLRAEDTATYYCAKRSHTGVNAAKIDAWGRGTEVIVS VL: ALTQPASVSANPGETVKITCSGASHNYGWFQQKSPGSAPVTVIYSNDKRPSDIPSRFSGSKSGSTATLTITGVQADDEAVYFCGGYNIYGPTFGAGTTLTV	≥ 30%
human-mouse chimeric monoclonal antibody #1 (antibody, V domains shown) VH: GPGLVQPSQSLSITCTVSGFSLTTYDLHWVRQSPGKGLEWLGVIWSGGSTDYNAAFISRLSISKDNSKSQVFFKMNSLQANDTAIYYCARNYGYSAWFAYWGQGTLVTVSA VL: DVLMTQTPLSLPVSLGDQASISCRSSQSIVHSNGNTYLEWYLQKPGQSPKLLIYKVSNRFSGVPDRFSGSGSGTDFTLKISRVEAEDLGVYYCFQGSHVPLTFGAGTKLELKR	≥ 30%

Numbers sourced from patent US20140186359A1.
